- System: Corynebacterium jeikeium
- assay: MIC of baseline clinical isolates (Example 8)
- Type: cell-based
- condition context: Corynebacterium jeikeium baseline isolates (N′ = 2), central laboratory, mITT
test readout: n (% resistant)

C[C@H]1COc2c(N3CCN(C)CC3)c(F)cc3c(=O)c(C(=O)O)cn1c23 [Levofloxacin]: 0 (0.0) n (%)

Request: Return reported n (% resistant); argument: CC[C@H]1OC(=O)[C@H](C)[C@@H](O[C@H]2C[C@@](C)(OC)[C@@H](O)[C@H](C)O2)[C@H](C)[C@@H](O[C@@H]2O[C@H](C)C[C@H](N(C)C)[C@H]2O)[C@](C)(O)C[C@@H](C)C(=O)[C@H](C)[C@@H](O)[C@]1(C)O [ERY]
Response: 1 (50.0) n (%)

Request: What about CN[C@H](CC(C)C)C(=O)N[C@H]1C(=O)N[C@@H](CC(N)=O)C(=O)N[C@H]2C(=O)N[C@H]3C(=O)N[C@H](C(=O)N[C@H](C(=O)O)c4cc(O)cc(O)c4-c4cc3ccc4O)[C@H](O)c3ccc(c(Cl)c3)Oc3cc2cc(c3O[C@@H]2O[C@H](CO)[C@@H](O)[C@H](O)[C@H]2O[C@H]2C[C@](C)(N)[C@H](O)[C@H](C)O2)Oc2ccc(cc2Cl)[C@H]1O [VAN] ?
Response: 0 (0.0) n (%)

Request: What about CCN1CCN(C(=O)N[C@@H](C(=O)N[C@@H]2C(=O)N3[C@@H]2SC(C)(C)[C@@H]3C(=O)O)c2ccccc2)C(=O)C1=O.C[C@]1(Cn2ccnn2)[C@H](C(=O)O)N2C(=O)C[C@H]2S1(=O)=O [TZP] ?
Response: 0 (0.0) n (%)

Request: What about CC1(C)S[C@@H]2[C@H](NC(=O)[C@H](N)c3ccc(O)cc3)C(=O)N2[C@H]1C(=O)O.O=C(O)[C@H]1/C(=C/CO)O[C@@H]2CC(=O)N21 [AMC] ?
Response: 0 (0.0) n (%)

Request: What about CC1(C)S[C@@H]2[C@H](NC(=O)Cc3ccccc3)C(=O)N2[C@H]1C(=O)O [PEN] ?
Response: 2 (100.0) n (%)

Request: What about CO/N=C(\C(=O)N[C@@H]1C(=O)N2C(C(=O)O)=C(CSc3nc(=O)c(O)nn3C)CS[C@H]12)c1csc(N)n1 [CRO] ?
Response: 2 (100.0) n (%)

Request: What about CC(=O)NC[C@H]1CN(c2ccc(N3CCOCC3)c(F)c2)C(=O)O1 [LZD] ?
Response: 0 (0.0) n (%)

Request: What about COc1cc(Cc2cnc(N)nc2N)cc(OC)c1OC.Cc1cc(NS(=O)(=O)c2ccc(N)cc2)no1 [SXT] ?
Response: 0 (0.0) n (%)

Request: What about CCC[C@@H]1C[C@@H](C(=O)N[C@@H]([C@H]2O[C@H](SC)[C@H](O)[C@@H](O)[C@H]2O)[C@H](C)Cl)N(C)C1 [CLI] ?
Response: 2 (100.0) n (%)

----------
- Tested on: Escherichia coli
- assay: Broth microdilution MIC (Example 6)
- Format: cell-based
- condition context: Escherichia coli, E. coli MMX 5755; ESBL; read-out: MIC
Listing of recorded MIC by entry.
Give just the numeric value; µg/mL need not be written.

Completed entries (count: 2):
NCC[C@H](O)C(=O)N[C@@H]1C[C@H](N)[C@@H](O[C@H]2O[C@H](CN)[C@@H](O)[C@H](O)[C@H]2O)[C@H](O)[C@H]1O[C@H]1O[C@H](CO)[C@@H](O)[C@H](N)[C@H]1O [Amikacin]: 16
C[C@@H](O)[C@H]1C(=O)N2C(C(=O)O)=C(S[C@@H]3CN[C@H](C(=O)N(C)C)C3)[C@H](C)[C@H]12 [Meropenem]: 0.015

Request: Return reported MIC; argument: C[C@H]1COc2c(N3CCN(C)CC3)c(F)cc3c(=O)c(C(=O)O)cn1c23 [Levofloxacin]
Response: 8

----------
- System: Staphylococcus arlettae
- assay: MIC of baseline clinical isolates (Example 8)
- Type: cell-based
- condition context: Staphylococcus arlettae baseline isolates (N′ = 1), central laboratory, mITT
test readout: Mean MIC
Be sure to follow the number with its unit.

Completed entries (count: 5):
Cc1onc(-c2ccccc2)c1C(=O)N[C@@H]1C(=O)N2[C@@H]1SC(C)(C)[C@@H]2C(=O)O: 2.00 µg/mL
CN(C)c1ccc(O)c2c1C[C@H]1C[C@H]3[C@H](N(C)C)C(O)=C(C(N)=O)C(=O)[C@@]3(O)C(O)=C1C2=O: 0.25 µg/mL
CN[C@H](CC(C)C)C(=O)N[C@H]1C(=O)N[C@@H](CC(N)=O)C(=O)N[C@H]2C(=O)N[C@H]3C(=O)N[C@H](C(=O)N[C@H](C(=O)O)c4cc(O)cc(O)c4-c4cc3ccc4O)[C@H](O)c3ccc(c(Cl)c3)Oc3cc2cc(c3O[C@@H]2O[C@H](CO)[C@@H](O)[C@H](O)[C@H]2O[C@H]2C[C@](C)(N)[C@H](O)[C@H](C)O2)Oc2ccc(cc2Cl)[C@H]1O: 2.00 µg/mL
CC1(C)S[C@@H]2[C@H](NC(=O)[C@H](N)c3ccc(O)cc3)C(=O)N2[C@H]1C(=O)O.O=C(O)[C@H]1/C(=C/CO)O[C@@H]2CC(=O)N21: 0.25 µg/mL
CCC[C@@H]1C[C@@H](C(=O)N[C@@H]([C@H]2O[C@H](SC)[C@H](O)[C@@H](O)[C@H]2O)[C@H](C)Cl)N(C)C1: 0.25 µg/mL

Request: Form: Entry = CC1(C)S[C@@H]2[C@H](NC(=O)[C@H](N)c3ccccc3)C(=O)N2[C@H]1C(=O)O | System = Staphylococcus arlettae | Mean MIC = ____
Response: 0.50 µg/mL

Request: What about CC(=O)NC[C@H]1CN(c2ccc(N3CCOCC3)c(F)c2)C(=O)O1 ?
Response: 2.00 µg/mL

Request: What about COc1cc(Cc2cnc(N)nc2N)cc(OC)c1OC.Cc1cc(NS(=O)(=O)c2ccc(N)cc2)no1 ?
Response: 8.00 µg/mL

----------
- Tested on: vancomycin-intermediate Staphylococcus aureus
- assay: Broth microdilution MIC (Example 6)
- Type: cell-based
- condition context: S. aureus isolate NRS 3
test readout: MIC (µg/mL)
Give just the numeric value; µg/mL need not be written.

Completed entries (count: 2):
CC(=O)NC[C@H]1CN(c2ccc(N3CCOCC3)c(F)c2)C(=O)O1 [LZD]: 1
CN[C@H](CC(C)C)C(=O)N[C@H]1C(=O)N[C@@H](CC(N)=O)C(=O)N[C@H]2C(=O)N[C@H]3C(=O)N[C@H](C(=O)N[C@H](C(=O)O)c4cc(O)cc(O)c4-c4cc3ccc4O)[C@H](O)c3ccc(c(Cl)c3)Oc3cc2cc(c3O[C@@H]2O[C@H](CO)[C@@H](O)[C@H](O)[C@H]2O[C@H]2C[C@](C)(N)[C@H](O)[C@H](C)O2)Oc2ccc(cc2Cl)[C@H]1O [VAN]: 8

Switching to the query record.
Request: Return reported MIC; argument: CCCCCCCCCC(=O)N[C@@H](Cc1c[nH]c2ccccc12)C(=O)N[C@H](CC(N)=O)C(=O)N[C@@H](CC(=O)O)C(=O)N[C@@H]1C(=O)NCC(=O)N[C@@H](CCCN)C(=O)N[C@@H](CC(=O)O)C(=O)N[C@H](C)C(=O)N[C@@H](CC(=O)O)C(=O)NCC(=O)N[C@H](CO)C(=O)N[C@@H]([C@H](C)CC(=O)O)C(=O)N[C@@H](CC(=O)c2ccccc2N)C(=O)O[C@@H]1C [DAP]
Response: 1

----------
- Test system: Pseudomonas aeruginosa
- assay: Broth microdilution MIC (Example 6)
- Type: cell-based
- condition context: Pseudomonas aeruginosa, P. aeruginosa isolate CDC 246, β-lactamase type NDM/OXA; read-out: MIC
test readout: MIC

CC(C)(O/N=C(\C(=O)N[C@@H]1C(=O)N2C(C(=O)[O-])=C(C[n+]3ccccc3)CS[C@H]12)c1csc(N)n1)C(=O)O: > 64 mg/L
NCC[C@H](O)C(=O)N[C@@H]1C[C@H](N)[C@@H](O[C@H]2O[C@H](CN)[C@@H](O)[C@H](O)[C@H]2O)[C@H](O)[C@H]1O[C@H]1O[C@H](CO)[C@@H](O)[C@H](N)[C@H]1O: > 64 mg/L
C[C@@H](O)[C@H]1C(=O)N2C(C(=O)O)=C(S[C@@H]3CN[C@H](C(=O)N(C)C)C3)[C@H](C)[C@H]12: > 8 mg/L

Switching to the query record.
Request: Form: Entry = C[C@H]1COc2c(N3CCN(C)CC3)c(F)cc3c(=O)c(C(=O)O)cn1c23 | System = Pseudomonas aeruginosa | MIC = ____
Response: > 8 mg/L
